Molecular target: T1, human neuropeptide Y2 (NPY2) receptor (human, UniProt P49146 1-381)
T1 sequence (looked up): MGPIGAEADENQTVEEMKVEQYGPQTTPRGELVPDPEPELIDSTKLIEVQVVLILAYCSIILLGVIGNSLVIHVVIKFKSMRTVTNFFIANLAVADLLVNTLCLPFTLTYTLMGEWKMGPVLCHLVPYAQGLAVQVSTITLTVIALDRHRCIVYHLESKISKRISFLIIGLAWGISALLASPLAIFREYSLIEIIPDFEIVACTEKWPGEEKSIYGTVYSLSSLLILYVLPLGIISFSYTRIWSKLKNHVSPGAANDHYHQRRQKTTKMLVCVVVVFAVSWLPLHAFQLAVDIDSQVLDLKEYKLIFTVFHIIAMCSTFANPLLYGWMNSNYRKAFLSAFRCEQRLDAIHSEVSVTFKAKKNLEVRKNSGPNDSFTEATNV
Test: cell-based or functional assay
Mark class 1 only for EC50, CreLuc assay, 100% hP values smaller than 40 nM; exact matches and larger values are class 0.

The following binders have reported results that may help.
• YXEGTFTSDYSIXLEEQAQXAFVEWLIKGGPSSGQSLRHYYNWLTRQRY (Aib at 2, 13, 20; K28 side chain: C20DA-gGlu-gGlu-gGlu-gGlu-gGlu-gGlu-eLys; C-terminal NH2) [Compound 31] = class 0
• YXEGTFTSDYSIXLEKQAQXAFVQWLIKGGPSEYVSLRHYYNWLTRQRY (Aib at 2, 13, 20; K28 side chain: C20DA-gGlu-gGlu-gGlu-gGlu-gGlu-gGlu-eLys; C-terminal NH2) [Compound 78] = class 1
• YXEGTFTSDYSIXLEXEAQXKFVEWLIKGGPSSGASLRHYYNWLTRQRY (Aib at 2, 13, 16, 20; K28 side chain: C20DA-gGlu-gGlu-gGlu-gGlu-gGlu-gGlu-eLys; C-terminal NH2) [Compound 16] = class 0

With those in mind, consider the next binder.
For this binder, is EC50, CreLuc assay, 100% hP lower than 40 nM? YXEGTFTSDYSIXLEEQAQXAFVQWLIKGGPSSGQSLRHYYNWLTRQRY (Aib at 2, 13, 20; K28 side chain: C20DA-gGlu-Glu-gGlu-gGlu-gGlu-gGlu-eLys; C-terminal NH2) [Compound 8]
class 0
